Values compiled from patent US20060122181A1.

READOUT LABEL: melting point

- CC(C)Cc1ccc(CN(C)c2ccc(-c3csc(CNC(Cc4ccc(Cl)cc4)C(=O)O)n3)cc2)cc1 (stereo not shown): 199 to 204 °C
- CCCC(CCC)c1ccc(OCc2ccc(-c3csc(CN(CC(=O)O)Cc4nc(C(C)(C)C)cs4)c3)cc2)cc1: 166 °C
- CCCC(CCC)c1ccc(Cn2cc(-c3csc(CN4CCN(c5cccc(C(=O)O)c5)CC4)n3)c3ccccc32)cc1: 107 to 110 °C
- CC(C)CN(Cc1ccc(-c2csc(CN(CC(=O)O)C(=O)N3CCOCC3)n2)cc1)c1ccc(C(C)(C)C)cc1: 138 °C

Query: Look up melting point: CN(Cc1ccccc1)c1ccc(-c2csc(CN(CC(=O)O)C(=O)Cc3csc4ccccc34)n2)cc1
Reply: 186 to 188 °C

Query: Look up melting point: CN(Cc1ccc(SCC(C)(C)C)cc1)c1ccc(-c2csc(CN(CC(=O)O)Cc3ccccc3)n2)cc1
Reply: 143 °C

Query: Look up melting point: CC(C)CN(Cc1ccc(-c2csc(CN(CC(=O)O)C(=O)c3ccccn3)n2)cc1)c1ccc(C(C)(C)C)cc1
Reply: 160 °C
